Tested on: horse erythrocytes
Assay: Haemolysis assay
Type: cell-based
Conditions: 4% (v/v) defibrinated horse erythrocytes, 37 °C, 2 h, 550 nm; normalised to 1% Triton X-100; calculated from the haemolysis curve
Procedure: Defibrinated horse erythrocytes (TCS Biosciences Ltd., Buckingham, UK) were used in the haemolysis assay. Peptides, from 1 μM to 512 μM, were tested with a 4% (v/v) erythrocyte suspension and were incubated at 37 °C for 2 h, while 1% Triton X-100 (Sigma-Aldrich, St. Louis, MO, USA) was acted as a positive control and phosphate-buffered saline (PBS) was used as a negative control. The sample supernatants were analysed at 550 nm on an ELISA plate reader (Biolise BioTek EL808, Winooski, VT, USA).
No end group written: not given here.
The following substances are shown together with reported HC50 (peptide concentration that caused 50% lysis of horse red blood cells) values.
# unit: µM | format: bare number

Answered cases to consult:
FLKIIGKLLSGLL-NH2 [VM-3K]	11.2
FLWIIGKLLSGLL-NH2 [VM-3W]	9.682
FLYIIGKLLSGLL-NH2 [VM-3Y]	211.2
FLPIIGKLLSGLL-NH2 [VM]	44.43

Continue with the substance presented below.
### Prompt Need HC50 (peptide concentration that caused 50% lysis of horse red blood cells) of FLGIIGKLLSGLL-NH2 [VM-3G] , thanks.
### Response 9.686

====

System: K. pneumoniae (ATCC 43816)
Assay: MIC/MBC broth dilution assay
Assay type: cell-based, Klebsiella pneumoniae
Settings: broth dilution, Mueller–Hinton broth, 5 × 10^5 CFU/mL, 37 °C overnight, OD 550 nm, nine replicates from three independent experiments
No end group written: not given here.
The following substances are shown together with reported MIC values.

Answered cases to consult:
FLGIIGKLLSGLL-NH2 [VM-3G]	>512 µM
FLWIIGKLLSGLL-NH2 [VM-3W]	>512 µM
FLPIIGKLLSGLL-NH2 [VM]	>512 µM
FLKIIGKLLSGLL-NH2 [VM-3K]	32 µM

Continue with the substance presented below.
### Prompt Need MIC of FLYIIGKLLSGLL-NH2 [VM-3Y] , thanks.
### Response >512 µM

====

Test system: MRSA biofilm
Test: Antibiofilm assay (MBIC/MBEC), crystal violet
Type: cell-based, methicillin-resistant Staphylococcus aureus
Conditions: MRSA biofilm inhibition, TSB, 595 nm, nine replicates from three independent experiments
No end group written: not given here.
The following substances are shown together with reported MBIC values.
# unit: µM | format: bare number

FLKIIGKLLSGLL-NH2 [VM-3K]	2
FLWIIGKLLSGLL-NH2 [VM-3W]	4
FLGIIGKLLSGLL-NH2 [VM-3G]	2
FLPIIGKLLSGLL-NH2 [VM]	8

Continue with the substance presented below.
### Prompt Need MBIC of FLYIIGKLLSGLL-NH2 [VM-3Y] , thanks.
### Response 2

====

Test system: E. coli biofilm
Assay: Antibiofilm assay (MBIC/MBEC), crystal violet
Assay type: cell-based, Escherichia coli
Settings: E. coli preformed 24 h biofilm, peptide 24 h at 37 °C, LB, 595 nm, nine replicates from three independent experiments
No end group written: not given here.
The following substances are shown together with reported MBEC values.

FLWIIGKLLSGLL-NH2 [VM-3W]	>512/>512 µM
FLGIIGKLLSGLL-NH2 [VM-3G]	> 512 µM

### Prompt Need MBEC of FLKIIGKLLSGLL-NH2 [VM-3K] , thanks.
### Response > 512 µM

### Prompt Subsequent entry: FLPIIGKLLSGLL-NH2 [VM]
### Response >512/>512 µM

### Prompt Subsequent entry: FLYIIGKLLSGLL-NH2 [VM-3Y]
### Response >512/>512 µM

FYI, the data here is from paper PMC9495676.
